biological target: Androgen receptor (Homo sapiens, UniProt P10275)
Sequence (P10275 whole entry): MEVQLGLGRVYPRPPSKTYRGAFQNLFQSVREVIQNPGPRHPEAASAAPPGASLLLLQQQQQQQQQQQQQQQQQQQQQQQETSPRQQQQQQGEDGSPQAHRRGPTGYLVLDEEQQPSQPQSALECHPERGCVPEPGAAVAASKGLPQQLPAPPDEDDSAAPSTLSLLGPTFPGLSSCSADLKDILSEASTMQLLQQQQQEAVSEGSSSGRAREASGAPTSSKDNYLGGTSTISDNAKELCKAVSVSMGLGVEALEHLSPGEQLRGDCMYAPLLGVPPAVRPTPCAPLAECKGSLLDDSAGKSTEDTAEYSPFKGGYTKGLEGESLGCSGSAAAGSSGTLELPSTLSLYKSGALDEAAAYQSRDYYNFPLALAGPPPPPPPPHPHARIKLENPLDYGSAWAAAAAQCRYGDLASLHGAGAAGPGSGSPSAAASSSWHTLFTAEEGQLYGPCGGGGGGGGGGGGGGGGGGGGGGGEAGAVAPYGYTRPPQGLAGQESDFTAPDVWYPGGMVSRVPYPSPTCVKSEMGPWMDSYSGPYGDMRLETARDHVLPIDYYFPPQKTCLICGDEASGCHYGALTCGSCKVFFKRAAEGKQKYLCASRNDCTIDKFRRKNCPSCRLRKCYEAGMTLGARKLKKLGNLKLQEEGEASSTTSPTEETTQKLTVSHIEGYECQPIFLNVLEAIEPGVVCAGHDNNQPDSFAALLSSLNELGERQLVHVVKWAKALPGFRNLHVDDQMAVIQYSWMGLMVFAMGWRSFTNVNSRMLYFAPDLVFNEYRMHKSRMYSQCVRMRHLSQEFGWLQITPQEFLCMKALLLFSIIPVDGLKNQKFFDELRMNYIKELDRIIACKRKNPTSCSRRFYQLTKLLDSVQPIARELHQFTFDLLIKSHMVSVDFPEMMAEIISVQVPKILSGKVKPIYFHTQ
Hi there, I'd appreciate the recorded Ki for every entry that follows.
Write the value in nM as a bare number.

Sure, the documented Ki for CCC(CC)(c1ccc(OC[C@H](O)CO)c(C)c1)c1ccc(OC[C@H](O)C(C)(C)C)c(C)c1 is 1000

The recorded Ki for CCC(CC)(c1ccc(OC[C@@H](O)CO)c(C)c1)c1ccc(OC[C@@H](O)C(C)(C)C)c(C)c1 is 1100

CCC(CC)(c1ccc(OCC(=O)C(C)(C)C)c(C)c1)c1ccc(OC[C@@H](O)CO)c(C)c1 yielded Ki of 1800
